Origin of values: ChEMBL document CHEMBL3352058

Experimental Protocol: Inhibition of Streptomyces plicatus beta-N-acetylhexosaminidase GH20 using p-nitrophenyl 2-acetamido-2-deoxy-beta-D-glucosaminide substrate at pH 7.0 and 25 degC
This listing pairs compounds with measured pKi.
On this scale, pKi is minus log10 of a concentration expressed in M (mol/L).

Examples from the recorded data:
• CC1=N[C@H]2[C@H](O[C@H](CO)C[C@@H]2O)S1 = 2.00
• CC1=N[C@@H]2[C@@H](O)[C@@H](O)[C@@H](CO)O[C@@H]2S1 = 4.04

-- ask Entry CC1=N[C@@H]2[C@@H](O)[C@H](O)[C@@H](CO)O[C@@H]2S1 : reported pKi = ?
-- reply 4.62
